SUBJECT_OF_TEST: platelet-derived growth factor-BB (PDGF-BB) (human) (UniProt P01127)
Sequence (P01127 82-190 limits assumed): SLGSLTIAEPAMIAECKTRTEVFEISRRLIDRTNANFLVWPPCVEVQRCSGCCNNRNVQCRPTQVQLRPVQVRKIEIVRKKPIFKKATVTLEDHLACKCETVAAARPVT
TEST: method not restated (same value as FN634-648 in paragraph 247)
RECORDED_METRIC: pKd
One number for each entry, as −log10 of the molar value.

Lab note: measured pKd of QPSHISKYILRWRPK [peptide 1A (FN634-648) …] was 6.35

Ref: patent US8759300
